Give viability, T/C for every item shown.
Test system: 653999-131-R-J2-PDC complex spheroids, growth inhibition
Assay: Anticancer human tumor 653999-131-R-J2-PDC patient-derived lung adenocarcinoma cell line growth inhibition [RAS]
Conditions: second compound 0.003 µM; first compound 0.0316 µM; stronger effect = lower value
Express the result in % but write the number alone.

Entry under review: C=CC(=O)N1CCN(c2nc(OCC3CCCN3C)nc3c(F)c(-c4nc(N)cc(C)c4C(F)(F)F)c(Cl)cc23)C(C)C1 (stereo not drawn) + CCn1c(-c2cc(N3CCN(C)CC3)cnc2C(C)OC)c2c3cc(ccc31)-c1csc(n1)CC(NC(=O)C1CC1C)C(=O)N1CCCC(N1)C(=O)OCC(C)(C)C2 . Reported viability, T/C?
59.1

And what about the compound C=CC(=O)Nc1cc(Nc2nccc(-c3cn(C)c4ccccc34)n2)c(OC)cc1N(C)CCN(C)C + CCn1c(-c2cc(N3CCN(C)CC3)cnc2C(C)OC)c2c3cc(ccc31)-c1csc(n1)CC(NC(=O)C1CC1C)C(=O)N1CCCC(N1)C(=O)OCC(C)(C)C2 ?
59

And what about the compound CCN1CCN(Cc2ccc(Nc3ncc(F)c(-c4cc(F)c5nc(C)n(C(C)C)c5c4)n3)nc2)CC1 + CCn1c(-c2cc(N3CCN(C)CC3)cnc2C(C)OC)c2c3cc(ccc31)-c1csc(n1)CC(NC(=O)C1CC1C)C(=O)N1CCCC(N1)C(=O)OCC(C)(C)C2 ?
62.3

And what about the compound NC1c2ccccc2OC12CCN(c1cnc3c(N4CCCc5ncccc54)n[nH]c3n1)CC2 (stereo not drawn) + CCn1c(-c2cccnc2C(C)OC)c2c3cc(ccc31)N1CCOC(CC(NC(=O)C(C(C)C)N(C)C(=O)C3(F)CCN(C(=O)C#CC(C)(C)N(C)C)CC3)C(=O)N3CCCC(N3)C(=O)OCC(C)(C)C2)C1 ?
83.4

And what about the compound C[C@@H](NC(=O)c1ncnc(N)c1Cl)c1ncc(C(=O)Nc2cc(C(F)(F)F)c(Cl)cn2)s1 + CCn1c(-c2cccnc2C(C)OC)c2c3cc(ccc31)N1CCOC(CC(NC(=O)C(C(C)C)N(C)C(=O)C3(F)CCN(C(=O)C#CC(C)(C)N(C)C)CC3)C(=O)N3CCCC(N3)C(=O)OCC(C)(C)C2)C1 ?
105

And what about the compound CC(Nc1ccc2c(c1)OCCn1cc(N3C(=O)OCC3C(F)F)nc1-2)C(N)=O (stereo not drawn) + CCn1c(-c2cccnc2C(C)OC)c2c3cc(ccc31)N1CCOC(CC(NC(=O)C(C(C)C)N(C)C(=O)C3(F)CCN(C(=O)C#CC(C)(C)N(C)C)CC3)C(=O)N3CCCC(N3)C(=O)OCC(C)(C)C2)C1 ?
88.3

And what about the compound Cc1nc(N2CCC3(CC2)COC(C)C3N)c(CO)nc1Sc1ccnc(N)c1Cl (stereo not drawn) + CCn1c(-c2cccnc2C(C)OC)c2c3cc(ccc31)N1CCOC(CC(NC(=O)C(C(C)C)N(C)C(=O)C3(F)CCN(C(=O)C#CC(C)(C)N(C)C)CC3)C(=O)N3CCCC(N3)C(=O)OCC(C)(C)C2)C1 ?
103

And what about the compound CC(C)n1nc(-c2ccc3oc(N)nc3c2)c2c(N)ncnc21 + CCn1c(-c2cccnc2C(C)OC)c2c3cc(ccc31)N1CCOC(CC(NC(=O)C(C(C)C)N(C)C(=O)C3(F)CCN(C(=O)C#CC(C)(C)N(C)C)CC3)C(=O)N3CCCC(N3)C(=O)OCC(C)(C)C2)C1 ?
42.9

###

System: 653999-131-R-J2-PDC complex spheroids, growth inhibition
Assay: Anticancer human tumor 653999-131-R-J2-PDC cell line growth inhibition [RAS];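 further: spheroids exposed to the agents for seven days before the readout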
Conditions: second compound 0.316 µM; first compound 0.1 µM; stronger effect = lower value
MEASUREMENT_NAME: viability, T/C (%)
Express the result in % but write the number alone.

Entry under review: CC(C)NCC(C(=O)N1CCN(c2ncnc3c2C(C)CC3O)CC1)c1ccc(Cl)cc1 (stereo not given) + C#Cc1c(F)ccc2cc(O)cc(-c3ncc4c(N5CC6CCC(C5)N6)nc(OCC56CCCN5CC(F)C6)nc4c3F)c12 . Reported viability, T/C?
62.6

And what about the molecule C=CC(=O)N1CCN(c2nc(OCC3CCCN3C)nc3c(F)c(-c4nc(N)cc(C)c4C(F)(F)F)c(Cl)cc23)C(C)C1 (stereo not given) + C#Cc1c(F)ccc2cc(O)cc(-c3ncc4c(N5CC6CCC(C5)N6)nc(OCC56CCCN5CC(F)C6)nc4c3F)c12 ?
67.8

And what about the molecule CCC(CC)c1cc(NC2CCC(N)C2)n2nccc2n1 (stereo not given) + C=CC(=O)N1CCN(c2nc(OCC3CCCN3C)nc3c(F)c(-c4nc(N)cc(C)c4C(F)(F)F)c(Cl)cc23)C(C)C1 ?
100

And what about the molecule CC(C)n1nc(-c2ccc3oc(N)nc3c2)c2c(N)ncnc21 + C#Cc1c(F)ccc2cc(O)cc(-c3ncc4c(N5CC6CCC(C5)N6)nc(OCC56CCCN5CC(F)C6)nc4c3F)c12 ?
16.2

And what about the molecule CCN1CCN(Cc2ccc(Nc3ncc(F)c(-c4cc(F)c5nc(C)n(C(C)C)c5c4)n3)nc2)CC1 + C=CC(=O)N1CCN(c2nc(OCC3CCCN3C)nc3c(F)c(-c4nc(N)cc(C)c4C(F)(F)F)c(Cl)cc23)C(C)C1 ?
69.4

###

System: 653999-131-R-J2-PDC complex spheroids, growth inhibition
Experiment: Anticancer human tumor 653999-131-R-J2-PDC cell line growth inhibition [RAS];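 further: spheroids exposed to the agents for seven days before the readout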
Conditions: second compound 0.3 µM; first compound 0.01 µM; stronger effect = lower value
MEASUREMENT_NAME: viability, T/C (%)
Express the result in % but write the number alone.

API: value(readout=viability, T/C, system=653999-131-R-J2-PDC complex spheroids, growth inhibition) for record C=CC(=O)Nc1cc(Nc2nccc(-c3cn(C)c4ccccc34)n2)c(OC)cc1N(C)CCN(C)C + CCn1c(-c2cccnc2C(C)OC)c2c3cc(ccc31)N1CCOC(CC(NC(=O)C(C(C)C)N(C)C(=O)C3(F)CCN(C(=O)C#CC(C)(C)N(C)C)CC3)C(=O)N3CCCC(N3)C(=O)OCC(C)(C)C2)C1
104

And what about the compound O=C(c1ccc(F)c(F)c1Nc1ccc(I)cc1F)N1CC(O)([C@@H]2CCCCN2)C1 + CCn1c(-c2cccnc2C(C)OC)c2c3cc(ccc31)N1CCOC(CC(NC(=O)C(C(C)C)N(C)C(=O)C3(F)CCN(C(=O)C#CC(C)(C)N(C)C)CC3)C(=O)N3CCCC(N3)C(=O)OCC(C)(C)C2)C1 ?
70.2

And what about the compound C=CC(=O)Nc1cc(Nc2nccc(-c3cn(C)c4ccccc34)n2)c(OC)cc1N(C)CCN(C)C + CCn1c(-c2cc(N3CCN(C)CC3)cnc2C(C)OC)c2c3cc(ccc31)-c1csc(n1)CC(NC(=O)C1CC1C)C(=O)N1CCCC(N1)C(=O)OCC(C)(C)C2 ?
26.2

And what about the compound C=CC(=O)N1CCN(c2nc(OCC3CCCN3C)nc3c(F)c(-c4nc(N)cc(C)c4C(F)(F)F)c(Cl)cc23)C(C)C1 (centres undefined) + CCn1c(-c2cc(N3CCN(C)CC3)cnc2C(C)OC)c2c3cc(ccc31)-c1csc(n1)CC(NC(=O)C1CC1C)C(=O)N1CCCC(N1)C(=O)OCC(C)(C)C2 ?
27.5

###

Test system: 653999-131-R-J2-PDC complex spheroids, growth inhibition
Assay: Anticancer human tumor 653999-131-R-J2-PDC cell line growth inhibition [RAS];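 further: spheroids exposed to the agents for seven days before the readout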
Details: second compound 0.316 µM; first compound 10 µM; stronger effect = lower value
MEASUREMENT_NAME: viability, T/C (%)
Express the result in % but write the number alone.

Entry under review: CC1(O)CCCC1n1c(=O)c(C(F)F)cc2cnc(NC3CCN(S(C)(=O)=O)CC3)nc21 (stereo unspecified) + C#Cc1c(F)ccc2cc(O)cc(-c3ncc4c(N5CC6CCC(C5)N6)nc(OCC56CCCN5CC(F)C6)nc4c3F)c12 . Reported viability, T/C?
27.7

And what about the compound NC1c2ccccc2OC12CCN(c1cnc3c(N4CCCc5ncccc54)n[nH]c3n1)CC2 (stereo unspecified) + C#Cc1c(F)ccc2cc(O)cc(-c3ncc4c(N5CC6CCC(C5)N6)nc(OCC56CCCN5CC(F)C6)nc4c3F)c12 ?
45.8

And what about the compound CC(Nc1ccc2c(c1)OCCn1cc(N3C(=O)OCC3C(F)F)nc1-2)C(N)=O (stereo unspecified) + C#Cc1c(F)ccc2cc(O)cc(-c3ncc4c(N5CC6CCC(C5)N6)nc(OCC56CCCN5CC(F)C6)nc4c3F)c12 ?
13.5

And what about the compound CCC(CC)c1cc(NC2CCC(N)C2)n2nccc2n1 (stereo unspecified) + C=CC(=O)N1CCN(c2nc(OCC3CCCN3C)nc3c(F)c(-c4nc(N)cc(C)c4C(F)(F)F)c(Cl)cc23)C(C)C1 ?
23.8

And what about the compound NC1c2ccccc2OC12CCN(c1cnc3c(N4CCCc5ncccc54)n[nH]c3n1)CC2 (stereo unspecified) + C=CC(=O)N1CCN(c2nc(OCC3CCCN3C)nc3c(F)c(-c4nc(N)cc(C)c4C(F)(F)F)c(Cl)cc23)C(C)C1 ?
73.2

And what about the compound C[C@@H](NC(=O)c1ncnc(N)c1Cl)c1ncc(C(=O)Nc2cc(C(F)(F)F)c(Cl)cn2)s1 + C=CC(=O)N1CCN(c2nc(OCC3CCCN3C)nc3c(F)c(-c4nc(N)cc(C)c4C(F)(F)F)c(Cl)cc23)C(C)C1 ?
86.1
